B1: KIAA1614 peptide 568-583 (uncharacterized protein KIAA1614), 16-mer library wild type / USP8 rhodanese domain (ubiquitin carboxyl-terminal hydrolase 8, residues 174-317) (parent)
chain 1: GMERVLGGLSSPLRLL
chain 2: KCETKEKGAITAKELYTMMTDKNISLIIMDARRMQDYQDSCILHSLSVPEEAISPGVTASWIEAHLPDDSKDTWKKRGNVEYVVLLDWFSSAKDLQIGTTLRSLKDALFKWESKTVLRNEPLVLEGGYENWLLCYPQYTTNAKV

- Variants of: B1
- assay protocol: peptide-phage display deep mutational scan (M13, 16-mer library, displayed with a C-terminal GGGSG linker encoded by the 3' flank) selected against the GST-tagged USP8 rhodanese domain, four rounds; NGS counts summed over selection …
- reported conditions: with USP8 rhodanese domain (ubiquitin carboxyl-terminal hydrolase 8, residues 174-317), 10 µg GST-bait on MaxiSorp, pre-cleared on GST, 2 h at 4 °C, five washes with 0.05% Tween 20 in PBS, not graded, scale: average over two replicas of the peptide's fractional NGS count
Could you mark each record MET if its screen value falls strictly under 0.0007, and NOT MET if it equals or exceeds it?

These recorded examples may help you get a feel for the data.
{"columns": ["variant key", "answer label"],
 "data": [
  ["chain 1 G1M", "MET"],
  ["chain 1 L15A", "MET"],
  ["chain 1 E3H", "MET"],
  ["chain 1 L15N", "MET"],
  ["chain 1 R14A", "NOT MET"]
]}

## Input Determine if chain 1 L9N shows screen value strictly lower than 0.0007.
## Output NOT MET

## Input Determine if chain 1 S10H shows screen value strictly lower than 0.0007.
## Output NOT MET

## Input Determine if chain 1 L16N shows screen value strictly lower than 0.0007.
## Output MET

## Input Determine if chain 1 V5H shows screen value strictly lower than 0.0007.
## Output NOT MET

## Input Determine if chain 1 V5P shows screen value strictly lower than 0.0007.
## Output NOT MET

## Input Determine if chain 1 R14G shows screen value strictly lower than 0.0007.
## Output MET

## Input Determine if chain 1 L16H shows screen value strictly lower than 0.0007.
## Output MET

## Input Determine if chain 1 L9E shows screen value strictly lower than 0.0007.
## Output NOT MET
